Cited source: patent US9394331B2

Below, each entry is listed with its recorded CC50 at 8 days.
test: Cell cytotoxicity assay (MTS); format: cell-based; conditions: human

| molecule | CC50 at 8 days |
| --- | --- |
| COc1nc(N)nc2c1ncn2C1OC2COP(=O)(OC(C)C)O[C@H]2[C@]12CCO2 (stereo partly drawn) [compound 133] | > 20 µM |
| COc1nc(N)nc2c1ncn2C1OC2COP(=O)(OC3CCCC3)O[C@H]2[C@]12CCO2 (stereo partly drawn) [compound 134] | > 20 µM |
| COc1nc(N)nc2c1ncn2C1OC2COP(=O)(OCC(C)(C)C)O[C@H]2[C@]12CCO2 (stereo partly drawn) [compound 132] | > 20 µM |
